Biological target: G254A-α1 GlyR (Homo sapiens, UniProt P23415, G282A)
Construct: expressed in transfected cells; host or cells: CHO cells
Sequence (P23415 29-449 isoform P23415-2 G282A limits assumed): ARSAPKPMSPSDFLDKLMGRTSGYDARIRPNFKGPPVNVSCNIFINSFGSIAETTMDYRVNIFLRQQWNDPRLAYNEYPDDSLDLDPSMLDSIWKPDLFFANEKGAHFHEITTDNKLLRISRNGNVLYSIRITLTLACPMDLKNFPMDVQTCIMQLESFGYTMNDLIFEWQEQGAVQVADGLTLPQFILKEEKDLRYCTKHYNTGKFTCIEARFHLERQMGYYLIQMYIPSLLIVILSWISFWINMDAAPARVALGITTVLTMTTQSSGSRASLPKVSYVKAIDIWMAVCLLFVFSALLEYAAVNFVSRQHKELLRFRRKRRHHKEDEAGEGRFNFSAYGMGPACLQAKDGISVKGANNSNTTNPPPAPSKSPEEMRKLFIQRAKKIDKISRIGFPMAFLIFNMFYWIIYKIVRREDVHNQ
Assay: Whole-cell patch-clamp of glycine-induced currents, G254A-α1 GlyR mutant expressed in CHO cells
Type: cell-based
Conditions: −30 mV; glycine 30 μM; representative; read-out: NFA IC50 (representative IC50 curve)
Measured Parameter: pIC50
Answers are plain numbers, as −log10 of the molar value.

Request: Given the molecule `O=C(O)c1cccnc1Nc1cccc(C(F)(F)F)c1` , what is its reported pIC50?
Response: 3.73
